Each entry below carries its recorded SGCB cell-surface expression functional score (log10).
B1: library; numbered along this chain (parent)
chain: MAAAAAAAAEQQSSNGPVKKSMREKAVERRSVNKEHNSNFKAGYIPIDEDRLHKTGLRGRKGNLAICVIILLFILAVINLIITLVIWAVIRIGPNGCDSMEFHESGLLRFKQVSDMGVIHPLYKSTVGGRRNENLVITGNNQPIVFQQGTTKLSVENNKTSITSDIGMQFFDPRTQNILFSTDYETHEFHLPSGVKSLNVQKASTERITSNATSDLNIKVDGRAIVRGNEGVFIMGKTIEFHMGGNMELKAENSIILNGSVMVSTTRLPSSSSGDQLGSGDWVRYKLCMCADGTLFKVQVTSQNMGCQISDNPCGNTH

- Variants of: B1
- assay.notes: SGCB cell-surface expression functional score (HA stain, bin4 vs bin1, normalised to synonymous) (log10 ratio); higher = more cell-surface SGCB (functional)
readout.label: SGCB cell-surface expression functional score (log10)

S197D : -0.76
G106P : -1.85
N246Q : 0.45
P121N : 0.38
I66C : 0.65
Q176R : 0.16
A3W : 0.1
V261T : 0.23
W282S : -0.06
